Cited source: patent US8022091B2

Biological target: human Edg-1 (S1P1) (Homo sapiens)
Assay: S1P1 binding assay: inhibition of [33P]-S1P binding to membrane fraction of HEK-293 cells transferred with the human Edg-1 (S1P1) gene
Conditions: [33P]-S1P 0.1 nM, human Edg-1 (S1P1) HEK-293 membrane fraction, 1 h at 30° C.; read-out: IC50 (concentration at which binding in the absence of the test compound was inhibited by 50%)
reported endpoint: IC50

Answered examples (3):
compound	assayed system	IC50
CCn1c(Oc2cccc(N3CCN(C)CC3)c2)nnc1[C@@H](C)NS(=O)(=O)c1ccc(Br)c(Br)c1 [Compound 112]	human Edg-1 (S1P1) (Homo sapiens)	≤ 10 nM
CCn1c(Oc2cccc(NS(C)(=O)=O)c2)nnc1[C@@H](C)NS(=O)(=O)c1ccc2ccccc2c1 [Compound 147]	human Edg-1 (S1P1) (Homo sapiens)	≤ 10 nM
CCn1c(Oc2ccc(Cl)cc2)nnc1[C@@H](C)NS(=O)(=O)c1ccc2ccccc2c1 [Compound 141]	human Edg-1 (S1P1) (Homo sapiens)	≤ 35 nM

Problem: Name the recorded IC50 for CCn1c(Oc2ccc(F)c(N3CCN(C)CC3)c2)nnc1[C@@H](C)NS(=O)(=O)c1ccc(Cl)c(Cl)c1 [Compound 681] .
Result: ≤ 10 nM

Problem: Name the recorded IC50 for CCCCc1ccc(Oc2nnc([C@@H](C)NS(=O)(=O)c3ccc(Cl)c(Cl)c3)n2CC)cc1 [Compound 32] .
Result: ≤ 35 nM

Problem: Name the recorded IC50 for CCn1c(Oc2cccc(N3CCN(C(C)C)CC3)c2)nnc1[C@@H](C)NS(=O)(=O)c1ccc2cccc(Cl)c2c1 [Compound 669] .
Result: ≤ 10 nM

Problem: Name the recorded IC50 for CCn1c(Oc2cccc(N3CCN(C)CC3)c2)nnc1[C@@H](C)NS(=O)(=O)c1ccc2ccccc2c1 [Compound 121] .
Result: ≤ 10 nM

Problem: Name the recorded IC50 for CCn1c(Oc2ccc3cc[nH]c3c2)nnc1[C@@H](C)NS(=O)(=O)c1cc(C)c(Cl)cc1Cl [Compound 131] .
Result: ≤ 35 nM

Problem: Name the recorded IC50 for CCn1c(Oc2ccc(N(C)C)cc2)nnc1[C@@H](C)NS(=O)(=O)c1ccc(Cl)c(Cl)c1 [Compound 43] .
Result: ≤ 35 nM

---

// reported inhibition at 10 µM per item
Target: human Edg-1 (S1P1) (Homo sapiens)
Construct: expressed in transfected cells; host or cells: HEK-293
Assay: S1P1 binding assay: inhibition of [33P]-S1P binding to membrane fraction of HEK-293 cells transferred with the human Edg-1 (S1P1) gene
Conditions: test compound 10 μM; inhibition of [33P]-S1P binding, membrane fraction
Answer in %, number only, no unit symbol.

Answered examples (6):
CCn1c(Oc2cccc(N3CCN(C)CC3)c2)nnc1[C@@H](C)NS(=O)(=O)c1ccc2c(C#N)cccc2c1 98.5
CCn1c(Oc2cccc(N3CCN(C)CC3)c2)nnc1[C@@H](C)NS(=O)(=O)c1ccc2c(c1)OCO2 96.6
CCn1c(Oc2cccc(N3CCN(C)CC3)c2)nnc1[C@@H](C)NS(=O)(=O)c1c(C)nn(C)c1Cl 64.3
CCn1c(Oc2ccc3cc[nH]c3c2)nnc1[C@@H](C)NS(=O)(=O)Cc1cccc(Cl)c1 50
CCn1c(Oc2cccc(N3CCN(C)CC3)c2)nnc1[C@@H](C)NS(=O)(=O)c1ccc2cc(Cl)ccc2c1 85.4
CCn1c(Oc2cccc(N3CCN(C)CC3)c2)nnc1[C@@H](C)NS(=O)(=O)c1ccc(OC)cc1 111

Problem: Form field: inhibition at 10 µM recorded for `CCn1c(Oc2ccc3cc[nH]c3c2)nnc1[C@@H](C)NS(=O)(=O)c1c(F)c(Br)cc(F)c1Br` with human Edg-1 (S1P1) (Homo sapiens) (enter value)
Result: 61

Problem: Form field: inhibition at 10 µM recorded for `CCn1c(Oc2cccc(N3CCN(C)CC3)c2)nnc1[C@@H](C)NS(=O)(=O)c1ccc2c(Br)cccc2c1` with human Edg-1 (S1P1) (Homo sapiens) (enter value)
Result: 99.2

Problem: Form field: inhibition at 10 µM recorded for `CCn1c(Oc2ccc3cc[nH]c3c2)nnc1[C@@H](C)NS(=O)(=O)c1ccc(Br)c(C(F)(F)F)c1` with human Edg-1 (S1P1) (Homo sapiens) (enter value)
Result: 62.5

---

Target: human Edg-1 (S1P1) (Homo sapiens)
Construct: expressed in transfected cells; host or cells: HEK-293
Assay: S1P1 binding assay: inhibition of [33P]-S1P binding to membrane fraction of HEK-293 cells transferred with the human Edg-1 (S1P1) gene
Settings: test compound at 10 μM; inhibition of [33P]-S1P binding to the membrane fraction of HEK-293 cells expressing human Edg-1 (S1P1)
Description: The membrane fraction was obtained by treating the cells with a solubilizing buffer (1 mM Tris/HCl, pH 7.2) for 10 minutes on ice, centrifuging at 1000×g for 5 minutes to remove insoluble fractions, and then centrifuging at 40000×g for 30 minutes at 4° C. […] The same procedure was carried out in the absence of the test compound, and the amount (B) of [^33P]-S1P bound was calculated. […]
reported endpoint: inhibition at 10 µM (%)
Answer in %, number only, no unit symbol.

CCc1ccc(S(=O)(=O)N[C@H](C)c2nnc(Oc3ccc4cc[nH]c4c3)n2CC)cc1 90.4
CCn1c(Oc2ccc(F)cc2)nnc1[C@@H](C)NS(=O)(=O)c1ccc(F)c(F)c1 95.8
CCn1c(Oc2ccc(Cl)cc2)nnc1[C@@H](C)NS(=O)(=O)c1ccc(Cl)c(Cl)c1 100
CCn1c(Oc2ccc(F)cc2)nnc1[C@@H](C)NS(=O)(=O)c1ccc(OC)cc1 103
CCn1c(Oc2ccc(F)cc2)nnc1[C@@H](C)NS(=O)(=O)c1ccc(C#N)cc1 90.8
CCn1c(Oc2ccc3cc[nH]c3c2)nnc1[C@@H](C)NS(=O)(=O)c1ccc(F)c(Cl)c1 98
CCn1c(Nc2ccc(F)cc2)nnc1[C@@H](C)NS(=O)(=O)c1ccc(Cl)c(Cl)c1 83.1
CCn1c(Oc2ccc(F)cc2)nnc1[C@@H](C)NS(=O)(=O)c1cc(C)c(Cl)cc1C 113

// next item, inhibition at 10 µM requested
Problem: Name the recorded inhibition at 10 µM for `CCn1c(Oc2cc(OC)cc(OC)c2)nnc1[C@@H](C)NS(=O)(=O)c1ccc(Cl)c(Cl)c1` .
Result: 97.4

---

// reported inhibition at 10 µM per item
Target: human Edg-1 (S1P1) (Homo sapiens, UniProt P21453)
Construct: expressed in transfected cells; host or cells: HEK-293
Sequence (P21453 whole entry): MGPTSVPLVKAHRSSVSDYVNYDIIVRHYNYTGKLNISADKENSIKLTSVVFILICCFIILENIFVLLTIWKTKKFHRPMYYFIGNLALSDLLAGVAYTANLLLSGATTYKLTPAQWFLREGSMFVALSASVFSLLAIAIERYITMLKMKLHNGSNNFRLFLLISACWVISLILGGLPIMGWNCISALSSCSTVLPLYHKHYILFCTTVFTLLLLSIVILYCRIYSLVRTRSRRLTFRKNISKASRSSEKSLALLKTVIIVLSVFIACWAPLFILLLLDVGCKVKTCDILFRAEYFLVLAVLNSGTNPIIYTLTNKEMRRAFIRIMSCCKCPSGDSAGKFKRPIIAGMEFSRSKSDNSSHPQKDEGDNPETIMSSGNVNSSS
Assay: S1P1 binding assay: inhibition of [33P]-S1P binding to membrane fraction of HEK-293 cells transferred with the human Edg-1 (S1P1) gene
Conditions: test compound 10 μM; inhibition of [33P]-S1P binding, membrane fraction
Answer in %, number only, no unit symbol.

CCn1c(Oc2ccc3cc[nH]c3c2)nnc1[C@@H](C)NS(=O)(=O)c1ccc(F)cc1Br 63
CCn1c(Oc2ccc3cc[nH]c3c2)nnc1[C@@H](C)NS(=O)(=O)c1cc(C)oc1C(F)(F)F 53.2
CCn1c(Oc2cccc(N3CCN(C)CC3)c2)nnc1[C@@H](C)NS(=O)(=O)c1cc(Br)ccc1OC 79.3
CCn1c(Oc2cccc(N3CCN(C)CC3)c2)nnc1[C@@H](C)NS(=O)(=O)c1c(C)cc(Cl)cc1Cl 93.7
CCn1c(Oc2cccc(N3CCN(C(C)C)CC3)c2)nnc1[C@@H](C)NS(=O)(=O)c1ccc2cccc(Cl)c2c1 100

Problem: Name the recorded inhibition at 10 µM for `CCn1c(Oc2cccc(N3CCN(C)CC3)c2)nnc1[C@@H](C)NS(=O)(=O)c1ccccc1C(F)(F)F` .
Result: 55.8

Problem: Name the recorded inhibition at 10 µM for `CCn1c(Oc2cccc(N3CCN(C)CC3)c2)nnc1[C@@H](C)NS(=O)(=O)CCCOc1ccc(OC)cc1` .
Result: 65.4

---

// reported inhibition at 10 µM per item
Biological target: human Edg-1 (S1P1) (Homo sapiens, UniProt P21453)
Construct: expressed in transfected cells; host or cells: HEK-293
Experiment: S1P1 binding assay: inhibition of [33P]-S1P binding to membrane fraction of HEK-293 cells transferred with the human Edg-1 (S1P1) gene
Conditions: test compound at 10 μM; inhibition of [33P]-S1P binding to the membrane fraction of HEK-293 cells expressing human Edg-1 (S1P1)
Answer in %, number only, no unit symbol.

Answered examples (3):
molecule	readout number
CCn1c(Oc2ccc3cc[nH]c3c2)nnc1[C@@H](C)NS(=O)(=O)c1ccccc1C [Compound 361]	96.9
CCn1c(Oc2ccc(F)cc2)nnc1[C@@H](C)NS(=O)(=O)c1cc(C(F)(F)F)cc(C(F)(F)F)c1 [Compound 212]	69.7
CCn1c(Oc2cccc(C3CCN(C(C)C)CC3)c2)nnc1[C@@H](C)NS(=O)(=O)c1ccc(Cl)c(Cl)c1 [Compound 108]	101

Problem: Name the recorded inhibition at 10 µM for Cc1c(C)c(C)c(S(=O)(=O)N[C@H](C)c2nnc(Oc3ccc(F)cc3)n2C)c(C)c1C [Compound 220] .
Result: 93.7

Problem: Name the recorded inhibition at 10 µM for CCn1c(Oc2ccc(F)cc2)nnc1[C@@H](C)NS(=O)(=O)c1cccc(OC(F)F)c1 [Compound 264] .
Result: 95.9

Problem: Name the recorded inhibition at 10 µM for CCn1c(Oc2ccc(F)cc2)nnc1[C@@H](C)NS(=O)(=O)c1ccc(Br)cc1Br [Compound 260] .
Result: 74.1
